Numbers sourced from the nanobody polyreactivity screen of Harvey et al. (2022).

Experiment: yeast display, Sf9 membrane polyspecificity reagent, FACS + sequencing; frameworks hold sequencing errors
measuredAttribute: polyreactivity (PSR sort gate)

INSERT INTO results (constructsequence, reportedmeasurement) VALUES
  ('QVQLVESGGGLVQAGGSLRLSCAASGSTFTINVMGWYSQAPGKEREVVAAINGGGRTNYADSVKGRFTISRDHAKNTVNLQMNSLKPEDTAVYYCAADGLSNVRQMDYWGQGTQVTVSS', 'low polyreactivity'),
  ('QVQLVESGGGLVQAGGSLRLSCAASGSIFGFYAMGWYRQAPGKERELVASITISGGSTYYADSVKGRFTISRDNAKNTVYLQLNSLKPEDTAVYYCAARRFWDYNYWGQGTQVTVSS', 'low polyreactivity');

----------
Assay: yeast display, Sf9 membrane polyspecificity reagent, FACS + sequencing; frameworks hold sequencing errors
measuredAttribute: polyreactivity (PSR sort gate)

Some entries whose results are on file:
INSERT INTO assay_data (constructsequence, measuredattribute, reportedmeasurement) VALUES
  ('PVQLVESGGGIVQAGGSLRLSCAASGTSFEYNAMGWSRPAPGKERELVAAITWSVGSTYYADSVKGRFTISRDNAKNTVYLQMNSLKPEDTAVYYCAAFDTASVYEFDYWGQGTQVTVSS', 'polyreactivity (PSR sort gate)', 'low polyreactivity'),
  ('QVQLVESGGGLVQAGGRLRLSCAASGGTFYLNAMGWYRQAPGKERELVAAISGSGTSTYYADSVKGRFTISRDNAKNTVYLQMNSLKPEDTAVYYCAADGTYFYIYLGDRFDYWGQGTQVTVSS', 'polyreactivity (PSR sort gate)', 'low polyreactivity'),
  ('QVQLVESGGGLVQAGGSLRLSCAASGSTFYYYGMGWYRQAPGKERELVAAINWSGGTTYYADSVKGRFTISRDNAKNTVYLQMNSLKPEDTAVYYCATEHNHLGYYYWGQGTQVTVSS', 'polyreactivity (PSR sort gate)', 'low polyreactivity'),
  ('QVQLVESGGALVQAGGSLRLSCAASGSTLAYNAMGWYRQAPGKERELVAGIRGSGGSTYYADSVKGRFTISRDNAKNTVYLQMNSLKPEDTAVYYCNADSSVGHPPDGEYWGQGTQVTVSS', 'polyreactivity (PSR sort gate)', 'low polyreactivity'),
  ('QVQLVESGGGLVQAGGSLRLSCAASGSIFEEYAMGWYRQAPGKERELVARIDESGGSTYYADSVKGRFTISRDTAKNTVYLQMNSLKPEDTAVYYCAAERYSDSWGYYSVDEGSWEMDYWGQGTQVTVSS', 'polyreactivity (PSR sort gate)', 'low polyreactivity'),
  ('QVQLVESGGGLVQAGGSLRLSCAASGFTFVYYAMGWYRQAPGKEREMVAGISSSDTTSYADSVKGRFTISRDNAKNTVYLQMNSLKPEDTEVYYCATRYWRRYPSTWSYPYYYWGQGTQVTVSS', 'polyreactivity (PSR sort gate)', 'high polyreactivity');

Would you kindly share the measured polyreactivity (PSR sort gate) for QVQLVESGGGLVQAGGSLRLSCAASGFTFYRYAMGWYRHAPGKERELVAAITRSGSRTYYADSVKGRFTISRDNAKNTVYLQMNSLKPEDTAVYYFNTDGGDHPTARYGYWGQVTQVTVSS ?
high polyreactivity

Would you kindly share the measured polyreactivity (PSR sort gate) for QVQLVESGGGLVQAGGSLRLSCAASGRIFVYNAKGWYRQAAGKERELVAAISYTGGTTYYADSVKGRFTISRDNAKKTVYLQMKSLKPEDTAVFFCAALWWWNRQVRYEYWGQGTQVTVSS ?
low polyreactivity

Would you kindly share the measured polyreactivity (PSR sort gate) for QVQLVESGGGLVQAGGSLRLSCAASGSTFSAYTMGWYRQAPGKERELVARITNGGSTYYADSVKGRFTISRDNAKNTVYLQMNSLKPEDTAVYYCAAQLGWWGSGYWGQGTQVTVSS ?
high polyreactivity

Would you kindly share the measured polyreactivity (PSR sort gate) for QDHLVESGGGLVQAGGSLRLICAANGRTFRRYAMGWYRQAPGKERELVATITSGGSTNYADSVKGRFTISRDNAKNTVYLQMNSLKPQDTAVYYCAARHGESHYDYWGQGTQVTVSS ?
low polyreactivity

Would you kindly share the measured polyreactivity (PSR sort gate) for QVQLVESGGGLVQAGGSLRLSCAASGSTFIANAMGWYRQAPGKERELVAAISASGDSTYYADSVKGRFTISRDNAKNTVYLQMNSLKPEDTAVYYCAADTSVHRHDYWGQGTQVTVSS ?
low polyreactivity

Would you kindly share the measured polyreactivity (PSR sort gate) for QVQLVDSGGGLVQAGGSLRLSCAASGRTFATYAMGWNRQAPGKERELVAAISSGGSTYYADSVKGRFTISRDNAKNNVYLQMNRLKPDDTAVYYCAAEVWFPDRWMDYWGQGTQVTVSS ?
high polyreactivity

Would you kindly share the measured polyreactivity (PSR sort gate) for QVQLGESGGGLVQAGGSLRLSCAASGSIFFLYAMGWYRQAPGKERELVAAISLSTGNTYYADSVKGRFTISRDNAKNTVYVQKNSLKPEDTAVYYCAAEDYWSAYYWGQGTQVTVSS ?
high polyreactivity

Would you kindly share the measured polyreactivity (PSR sort gate) for QVQLEESAGGLVQAGGSLRLSCAASGIIFSGNAMGWYRQATGKERELVAAITLSGGSTYYADSVKGRFTISRDNAKNTVYLQMNSLKPEDTAVYYCNAVYDTIYSLRDIDTEYGSWGQGTQVTVSS ?
low polyreactivity

Would you kindly share the measured polyreactivity (PSR sort gate) for QVQLVESGGGLVQAGGSLRLICAASGRILWYYAMGWYRQAPGKERELVAAITSSGRTKYADSVKGRFTISRDNAKNTVYLQMNSLKPEDSAVYYCAARPSQWNYDYRRVYYWGQGTQVTVSS ?
high polyreactivity

Would you kindly share the measured polyreactivity (PSR sort gate) for QVHLVESGGGLVQAGGSLRLSCAASGRTFDRYDMGWYRQAPGKEWELVATISSSGGSTYYADSVKGRFTISRDNEKNTVYLQMNSLKPEDTAVYYCAADPSGDYWGQGTQVTVSS ?
low polyreactivity

Would you kindly share the measured polyreactivity (PSR sort gate) for QVQVVESGAGLVQAGGILRLRCASSGFILYPNAMGWYRQAPGKERELVAAITESDGITYYADSVKGRFTISRDNAKNTVYLQMNSLKPEDTAVYYCNTGFSYTYDYWGQGTQVTVSS ?
low polyreactivity

Would you kindly share the measured polyreactivity (PSR sort gate) for QVQLVESGGGLVQAGGSLRLSCAASGFTFHSYAMGWYRQAPGKDRELVAAISRGGGNTYYADSVKGRFTISRDNAKNTVYLQMNSLKPEDTAVYYCAADAIYNFEMDYWGQGTQVTVSS ?
high polyreactivity

Would you kindly share the measured polyreactivity (PSR sort gate) for QVQIVESGGGLVQAGGSLRLSCAASGSIFKIYEMGWYRLAPGKEREMVASMTCSGGSTYYADSVKGRFTISRDNAKNTVYLQRNSLKPEDTAGYYCAAAVLGSSKSEVDPDRPEYYYWGQGTQVTVSS ?
low polyreactivity

Would you kindly share the measured polyreactivity (PSR sort gate) for QVQLVESGGGLVQAGGSLRLSCAASGSIFYRYAMGWYRQAPGKERELVAAINWSGGSTYYADSVKGGFTISRDNAKNTVYLQMNTLKPEDTAVYYCAARLYWRRYDYWGQGTQVTVSS ?
high polyreactivity

Would you kindly share the measured polyreactivity (PSR sort gate) for QVQLVESGGGLVQAGGSLRLSCAASGFTFYFYAMGWYRQAPGKERELVAAISRGGSTTYADSVKGRFTISRDNAKNTVYLQMNSLIPEDTAVSYCKADIYTWFQIGGYQYDYWGQGTQVTVSS ?
low polyreactivity

----------
Assay: yeast display, Sf9 membrane polyspecificity reagent, FACS + sequencing; frameworks hold sequencing errors
measuredAttribute: polyreactivity (PSR sort gate)

Some entries whose results are on file:
INSERT INTO assay_data (constructsequence, measuredattribute, reportedmeasurement) VALUES
  ('QVQLVESGGGLVQAGGSLSLSCAASGSIFWRNAMGWYRPAPGKERELVAAITSGGSTYYADSVKGRFTISRDNAKNTVYLQMNSLKPEDTAVYYCAAGYSYRYDYWGQGTQVTVSS', 'polyreactivity (PSR sort gate)', 'low polyreactivity'),
  ('QVQLVESGGGLVQAGGSLRLSCAASGRIFWDYALGWYRQAPGKERELVAVITFSGDSTYYADSVKGRFTISRDNAKNTVYVQMNSLKPEDTAVYYCAAARAIRQFWYVATFEYWGQGTQVTVSS', 'polyreactivity (PSR sort gate)', 'low polyreactivity'),
  ('QVQLVESGGGVVQAGGSLRLSCAASGSIFLYIYAKGWYRHAPGKERELVATINWDGGSTYYADSVKGRFTISRDNAKNTVYLQMNSLKPEDTAVYYCAADWYYSYYFYRFDYWGQGTQVTVSS', 'polyreactivity (PSR sort gate)', 'low polyreactivity'),
  ('QVQLVESGGGLVQAGGSLRLSCAASGSIFPHYAMGWYRQAPGKERELVAAISRSGTSTYYADSVKGRFTISRDNAKNTVYLQMNSLKPEDTAVYYCAAGYWFSYSRVTRYDYWGQGTQVTVSS', 'polyreactivity (PSR sort gate)', 'high polyreactivity'),
  ('QVQLVESGGGLVQAGGSLRLSCADSGFTFSWYTMGWYRQAPGKERELVASITVSGGSTYYADSVKGRFTISRDNAKNTVYLQMNSLKPEDTAVYYCNAQDPFTYYSSSPTYDYWGQGTQVTVSS', 'polyreactivity (PSR sort gate)', 'low polyreactivity'),
  ('QVQLVESGGGLVQAGGSLRLSCAASGRIFYQNAMGWYRPAPGKERELVADISSGGSTYYADSVKGRFTISRDNAKNTVYLQMNSVKPEDTAVYYCHTPSGPGTVGSYRRKWYGYWGQGTQVTVSS', 'polyreactivity (PSR sort gate)', 'low polyreactivity');

Would you kindly share the measured polyreactivity (PSR sort gate) for QVQLVESGGGLVQAGGSLRLSCAASGFTFPIYAMGWSRQAPGKEWELVAAISKGGARTYYADSVKGRFTISRDNAKNTVYLQMNSLNPEDTAVYYCAALGPGGWYDYWGQGTQVTVSS ?
high polyreactivity

Would you kindly share the measured polyreactivity (PSR sort gate) for QVQLVDSGGGLVQAGGSLRLSCAASGSIFSFYAMGGSRQAPGKERELVAAIDGGGSTDYADSVKGRFTISRDHAKYTVYLQMNSLKPEDTAVYDCAARDIYHYDWGQGTQVTVSS ?
low polyreactivity

Would you kindly share the measured polyreactivity (PSR sort gate) for QVQLVESGGGLVQAGGSLRLRCAASGRNFVANGKGWYRQAPGKERELVAAINDGDDTYYADSVKGRFTISRDNAQNTVYLQMNSLKPEDTEVYYCAADIIYGYEVYTYTSDYWGQGTQVTVSS ?
low polyreactivity

Would you kindly share the measured polyreactivity (PSR sort gate) for QVQLVESAGGLVQAGGSLRLSCAPSGRIFLTNAMGWYRQAPGKERELVAAITSGGSTYYADSVKGRFTISRDNAKNTVYLQMNSLKPEDTAVYYCNADTDRYWPYEYDYWGQGTQVTVSS ?
low polyreactivity

Would you kindly share the measured polyreactivity (PSR sort gate) for QFQLVESVRGLVQAGVSLRLSCAASGSTFNFYAMGLYRQPPGKERELVAAIRQSSGRTYYADSVKGRFTISRDNGNYTVYLQMNSLKPEDTAVYYCAAVRYNFNFKMYYWGQGTQVTVSS ?
high polyreactivity
